Test system: MDA-MB-231
assay.notes: Growth inhibition of human MDA-MB-231 cells by sulforhodamine B assay
Format: functional
Each item that follows carries a reported TGI.

{"molecule": "CCCCCCCCC[C@@H]1C[C@@H]2CCc3c(C(=O)OCCCCNC(=N)N)c(CCCCC)nc([n+]32)N1 [DIHOMODEHYDROBATZELLADINE C]", "result.unit": "µM", "comparison.sign": "=", "TGI": 9.8}
{"molecule": "CCCCCCCC[C@@H]1C[C@@H]2CC[C@H]3[C@@H](C(=O)OC(C)CCCCCCC[C@@H]4C[C@@H]5CC[C@@H]6C[C@H](C)NC(=N4)N65)[C@@H](C)N=C(N1)N23 (stereo not given in full) [NORBATZELLADINE L]", "result.unit": "µM", "comparison.sign": "=", "TGI": 1.9}
{"molecule": "CCCCCCC[C@@H]1C[C@@H]2CC[C@H]3[C@@H](C(=O)OCCCCCCCCC[C@H]4NC(=N)N5CCCC5=C4C(=O)OCCCCNC(=N)N)[C@@H](C)N=C(N1)N23 [DINORBATZELLADINE A]", "result.unit": "µM", "comparison.sign": "=", "TGI": 3.8}
{"molecule": "CCCCCCC[C@@H]1C[C@@H]2CCc3c(C(=O)O)c(C)nc([n+]32)N1 [CLATHRIADIC ACID]", "result.unit": "µM", "comparison.sign": ">", "TGI": 30}
{"molecule": "CCCCCCCC[C@@H]1C[C@@H]2CC[C@H]3[C@@H](C(=O)OCCCCCCCCC[C@H]4NC(=N)N5CCCC5=C4C(=O)OCCCCNC(=N)N)[C@@H](C)N=C(N1)N23 [NORBATZELLADINE A]", "result.unit": "µM", "comparison.sign": "=", "TGI": 6.4}
